# Tested on: WSU-DLCL2 (B-Cell Non-Hodgkin's Lymphoma);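 note: after 72 h of two-drug dosing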
# protocol summary: Bliss excess, mean over the matrix (fraction); higher = more synergy
value kind: Bliss excess

- compound: "N#Cc1cnc(Nc2cc(NC[C@H]3CNCCO3)c(C(F)(F)F)cn2)cn1 [SRA737] + CCc1c2c(nc3ccc(O)cc13)-c1cc3c(c(=O)n1C2)COC(=O)[C@]3(O)CC [SN-38] (first compound max 10 µM, 7x7, partner max 0.3 µM)"
  assayed system: "WSU-DLCL2 (B-Cell Non-Hodgkin's Lymphoma)"
  value kind: "Bliss excess"
  reading: 0.0055
- compound: "Cc1cc2ncnn2cc1Nc1ncc2c(n1)n(C1CCOCC1)c(=O)n2C [AZD7648] + CCN(CCO)CCCOc1ccc2c(Nc3cc(CC(=O)Nc4cccc(F)c4)[nH]n3)ncnc2c1 [AZD2811] (first compound max 10 µM, 7x7, partner max 1 µM)"
  assayed system: "WSU-DLCL2 (B-Cell Non-Hodgkin's Lymphoma)"
  value kind: "Bliss excess"
  reading: 0.127
- compound: "NC1(C(=O)N[C@@H](CCO)c2ccc(Cl)cc2)CCN(c2ncnc3[nH]ccc23)CC1 [Capivasertib] + CC(=O)c1c(C)c2cnc(Nc3ccc(N4CCNCC4)cn3)nc2n(C2CCCC2)c1=O [Palbociclib] (first compound max 10 µM, 7x7, partner max 10 µM)"
  assayed system: "WSU-DLCL2 (B-Cell Non-Hodgkin's Lymphoma)"
  value kind: "Bliss excess"
  reading: 0.0205
